Hello, the source for this data is patent US20230044278A1, in case you need it.

Recorded EC50 for the following binders
molecular target: T1, recombinant human transferrin receptor 1 (human, UniProt P02786 89-760); assay: ELISA, Fab-ASO300 conjugate; printed as 'DMPK oligo conjugate binding to hTfR1 (nM)'
T1 construct: also called hTfR1; huTfR1
T1 sequence (P02786 89-760 limits assumed): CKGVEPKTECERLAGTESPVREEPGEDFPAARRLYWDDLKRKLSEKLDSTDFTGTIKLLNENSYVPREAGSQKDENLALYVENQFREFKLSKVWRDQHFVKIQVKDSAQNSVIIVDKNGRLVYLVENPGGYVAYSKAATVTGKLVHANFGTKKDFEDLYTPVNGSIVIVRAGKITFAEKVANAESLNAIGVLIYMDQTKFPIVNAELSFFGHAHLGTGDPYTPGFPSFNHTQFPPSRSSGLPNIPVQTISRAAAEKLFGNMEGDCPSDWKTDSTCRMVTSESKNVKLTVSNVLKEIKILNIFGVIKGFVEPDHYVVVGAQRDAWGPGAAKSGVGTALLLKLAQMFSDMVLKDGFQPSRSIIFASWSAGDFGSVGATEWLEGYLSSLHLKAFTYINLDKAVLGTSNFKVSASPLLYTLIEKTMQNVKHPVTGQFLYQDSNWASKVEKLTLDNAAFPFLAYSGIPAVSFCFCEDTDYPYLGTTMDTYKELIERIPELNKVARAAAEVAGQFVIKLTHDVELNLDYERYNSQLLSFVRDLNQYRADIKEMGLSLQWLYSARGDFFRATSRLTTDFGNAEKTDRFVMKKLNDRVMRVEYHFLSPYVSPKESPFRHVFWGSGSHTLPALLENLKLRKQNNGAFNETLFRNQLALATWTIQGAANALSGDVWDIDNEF
quantity_measured: EC50 (nM)

[
  {
    "binder": "3M12 (VH3/Vk2) Fab conjugated to DMPK-targeting oligonucleotide ASO300 (Fab, V domains shown, ASO300 oligonucleotide covalently conjugated via linker of Formula (C); residue and chain not stated, also called 3M12 (VH3/Vk2) conjugate; DMPK oligo conjugate) VH: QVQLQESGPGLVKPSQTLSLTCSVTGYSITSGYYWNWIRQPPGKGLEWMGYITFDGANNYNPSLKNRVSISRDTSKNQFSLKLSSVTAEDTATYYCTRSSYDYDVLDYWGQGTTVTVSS VL: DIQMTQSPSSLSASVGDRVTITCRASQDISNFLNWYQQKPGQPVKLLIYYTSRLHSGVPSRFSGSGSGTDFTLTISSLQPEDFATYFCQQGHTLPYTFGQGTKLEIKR",
    "quantity_measured": "EC50",
    "quantitative_result": 1.14
  },
  {
    "binder": "3A4 (VH3-N54S/Vk4) Fab conjugated to DMPK-targeting oligonucleotide ASO300 (Fab, V domains shown, ASO300 oligonucleotide covalently conjugated via linker of Formula (C); residue and chain not stated, also called 3A4 (VH3-N54S/Vk4) conjugate; DMPK oligo conjugate) VH: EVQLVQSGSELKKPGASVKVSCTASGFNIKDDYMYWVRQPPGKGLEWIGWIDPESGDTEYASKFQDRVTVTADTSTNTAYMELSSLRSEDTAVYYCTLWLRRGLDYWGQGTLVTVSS VL: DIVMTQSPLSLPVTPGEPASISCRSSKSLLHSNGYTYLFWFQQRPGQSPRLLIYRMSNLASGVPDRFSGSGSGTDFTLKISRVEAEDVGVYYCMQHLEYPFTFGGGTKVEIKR",
    "quantity_measured": "EC50",
    "quantitative_result": 2.71
  },
  {
    "binder": "3A4 (VH3-N54T/Vk4) Fab conjugated to DMPK-targeting oligonucleotide ASO300 (Fab, V domains shown, ASO300 oligonucleotide covalently conjugated via linker of Formula (C); residue and chain not stated, also called 3A4 (VH3-N54T/Vk4) conjugate; DMPK oligo conjugate) VH: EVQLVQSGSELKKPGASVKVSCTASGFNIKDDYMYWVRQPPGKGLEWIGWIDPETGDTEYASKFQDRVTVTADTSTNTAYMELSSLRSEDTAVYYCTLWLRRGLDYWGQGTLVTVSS VL: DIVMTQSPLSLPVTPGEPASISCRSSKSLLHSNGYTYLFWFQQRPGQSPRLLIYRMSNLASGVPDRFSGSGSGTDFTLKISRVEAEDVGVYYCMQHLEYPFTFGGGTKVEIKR",
    "quantity_measured": "EC50",
    "quantitative_result": 2.22
  },
  {
    "binder": "3M12 (VH4/Vk3) Fab conjugated to DMPK-targeting oligonucleotide ASO300 (Fab, V domains shown, ASO300 oligonucleotide covalently conjugated via linker of Formula (C); residue and chain not stated, also called 3M12 (VH4/Vk3) conjugate; DMPK oligo conjugate) VH: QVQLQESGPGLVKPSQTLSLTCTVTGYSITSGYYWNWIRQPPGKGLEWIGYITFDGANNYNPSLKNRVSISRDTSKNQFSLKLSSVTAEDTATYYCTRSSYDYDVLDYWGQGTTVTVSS VL: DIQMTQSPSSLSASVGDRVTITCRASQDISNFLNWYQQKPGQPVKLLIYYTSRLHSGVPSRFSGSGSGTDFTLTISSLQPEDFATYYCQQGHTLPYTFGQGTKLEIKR",
    "quantity_measured": "EC50",
    "quantitative_result": 1.18
  }
]
